The measurements presented in this section are drawn from PubChem BioAssay AID328.

# Test system: BDF1 mice, P388 leukemia ip, median survival T/C
# protocol_notes: NCI In Vivo Anticancer Drug Screen. Data for tumor model P388 Leukemia (intraperitoneal) in B6D2F1 (BDF1) mice
# applied_conditions: endpoint: median survival time; dose: 200.0 mg/kg/injection; schedule: Q04DX003 (ip); vehicle: Klucel (hydroxypropylcellulose) (HPC)
Inconclusive results and toxic doses are left out. The calls were made as follows: active = survival T/C of 150% or more; inactive = T/C below 125% in these data.
Just give me one of these, please: active, inactive

Reference set, count: 5
{"columns": ["compound", "group"],
 "data": [
  ["CN(C)c1ccc(Cc2ccc(N(C)C)cc2[N+](=O)[O-])c([N+](=O)[O-])c1", "inactive"],
  ["COC1(c2ccccc2)CN(Cc2ccccc2)CCO1 (centres undefined)", "inactive"],
  ["NS(=O)(=O)c1cc([N+](=O)[O-])ccc1Cl", "inactive"],
  ["O=C1c2ccccc2CCC12OC2c1ccc(Cl)cc1 (centres undefined)", "inactive"],
  ["Cc1cc(Cl)ccc1NC(=O)c1ccccc1C(=O)O", "inactive"]
]}

Consider the record given below.
For COc1ccccc1/C=C/c1ccnc2ccccc12 , what call appears in the results of this test?
inactive

----------
Here the recorded T/C is given for each entry.
# Test system: BDF1 mice, P388 leukemia ip, median survival T/C
# protocol_notes: NCI In Vivo Anticancer Drug Screen. Data for tumor model P388 Leukemia (intraperitoneal) in B6D2F1 (BDF1) mice
# applied_conditions: endpoint: median survival time; dose: 50.0 mg/kg/injection; schedule: Q04DX003 (ip); vehicle: saline; higher = longer survival
Inconclusive results and toxic doses are left out.

{"columns": ["compound", "meas_value"],
 "data": [
  ["C1CC[N-]CC1.C1CC[N-]CC1.O=C(CC(=O)C(F)(F)F)C(F)(F)F.O=C(CC(=O)C(F)(F)F)C(F)(F)F.[Ni+2]", "108 % of control"],
  ["CC1=CC(=O)OC2(C1)CC1CCC2CN1C (stereo not given)", "104 % of control"],
  ["O=C(/C=C/c1ccccc1)N1CCOCC1", "95 % of control"],
  ["CC#CCOCC(O)CCl (stereo not given)", "115 % of control"],
  ["COc1cc2c(cc1OC)C1c3cc(OC)c(OC)cc3CC(=O)N1CC2 (stereo not given)", "102 % of control"]
]}

Give the value of T/C reported for the following: CCCN(CCC)CCCOC(=O)c1ccc(N)cc1
100 % of control

Tell me T/C reported for CN(C)[C@@H]1C(=O)C(C(=O)NCNC(CO)(CO)CO)=C(O)[C@@]2(O)C(=O)C3=C(O)c4c(O)cccc4[C@@](C)(O)[C@H]3C[C@@H]12
95 % of control

Provide one value: measured T/C of CCCCOP(=O)(CCCC)OCCCC
104 % of control

Dear colleague, please send me the reported T/C for CCN(CC)CCSC(=O)C(O)(c1ccccc1)C1CCCC1 (stereo not given) when you can.
104 % of control

Name the recorded T/C of the compound listed here: NS(=O)(=O)Cc1ccccc1
100 % of control

----------
Readings of T/C for the listed molecules
# Test system: BDF1 mice, P388 leukemia ip, median survival T/C
# protocol_notes: NCI In Vivo Anticancer Drug Screen. Data for tumor model P388 Leukemia (intraperitoneal) in B6D2F1 (BDF1) mice
# applied_conditions: endpoint: median survival time; dose: 1.56 mg/kg/injection; schedule: Q01DX009 (ip); vehicle: saline; higher = longer survival
Inconclusive results and toxic doses are left out.

Please review the following examples before continuing.
{"columns": ["molecule", "measurement_target", "T/C"],
 "data": [
  ["CCCCCCCCCCCC[N+](C)(C)Cc1ccccc1", "BDF1 mice, P388 leukemia ip, median survival T/C", "109 % of control"],
  ["CN(CCO)/N=N/c1nc[nH]c1C(N)=O", "BDF1 mice, P388 leukemia ip, median survival T/C", "95 % of control"],
  ["CCC1NC(C)(C)CC1=C(C)C (configuration not stated)", "BDF1 mice, P388 leukemia ip, median survival T/C", "104 % of control"],
  ["CC(=O)Nc1ccc(S(=O)(=O)Oc2ccc([N+](=O)[O-])cc2)cc1", "BDF1 mice, P388 leukemia ip, median survival T/C", "96 % of control"],
  ["COc1cc2ccc3c(c2cc1OC)C=NCC3", "BDF1 mice, P388 leukemia ip, median survival T/C", "100 % of control"]
]}

Report its T/C with BDF1 mice, P388 leukemia ip, median survival T/C as the test system: NC(=O)CCC(N)C(=O)O.[Cl-].[Cl-].[Cl-].[Cl-].[Pt+2] (configuration not stated)
106 % of control

Enter recorded T/C with BDF1 mice, P388 leukemia ip, median survival T/C for COc1cccc2c1C(=O)c1c(O)c3c(c(O)c1C2=O)C[C@@](O)(C(=O)CO)C[C@@H]3OC1CC(NC(=S)Nc2ccc3ccccc3c2)C(O)C(C)O1 (some centres not stated) here.
95 % of control
